Field: MIC. Provide a value for each of the molecules that follow.
assay: Antibacterial activity against Acinetobacter calcoaceticus/baumannii complex isolate M2AC9-31 expressing KPC beta lactamase; assay type: functional

input: Given "CN(C)c1ccc(O)c2c1C[C@H]1C[C@H]3[C@H](N(C)C)C(O)=C(C(N)=O)C(=O)[C@@]3(O)C(O)=C1C2=O" , respond with its MIC.
output: < 2 µg/mL

input: Give the reported MIC for this molecule. "C[C@@H](O)[C@H]1C(=O)N2C(C(=O)O)=C(S[C@@H]3CN[C@H](CNS(N)(=O)=O)C3)[C@H](C)[C@H]12"
output: > 2 µg/mL

input: Identify MIC associated with the molecule "CC(C)(O/N=C(\C(=O)N[C@@H]1C(=O)N2C(C(=O)[O-])=C(C[n+]3ccccc3)CS[C@H]12)c1csc(N)n1)C(=O)O"
output: > 16 µg/mL

input: Please report the measured MIC for "CO/N=C(\C(=O)N[C@@H]1C(=O)N2C(C(=O)[O-])=C(C[N+]3(C)CCCC3)CS[C@H]12)c1csc(N)n1"
output: > 16 µg/mL

input: Look up and report measured MIC for this entry: C[C@@H](O)[C@H]1C(=O)N2C(C(=O)O)=C(SCCNC=N)C[C@H]12 [IMIPENEM ANHYDROUS]
output: 8 µg/mL

input: Dear colleague, please send me the reported MIC for "NCC[C@H](O)C(=O)N[C@@H]1C[C@H](N)[C@@H](O[C@H]2O[C@H](CN)[C@@H](O)[C@H](O)[C@H]2O)[C@H](O)[C@H]1O[C@H]1O[C@H](CO)[C@@H](O)[C@H](N)[C@H]1O" when you can.
output: > 32 µg/mL

input: Dear colleague, please send me the reported MIC for "C[C@H]1COc2c(N3CCN(C)CC3)c(F)cc3c(=O)c(C(=O)O)cn1c23.C[C@H]1COc2c(N3CCN(C)CC3)c(F)cc3c(=O)c(C(=O)O)cn1c23.O" when you can.
output: > 8 µg/mL
